- test: Cytotoxicity to eukaryotic cells (lethal concentration for 50% of a cell monolayer)
- Type: cell-based
- test_settings: human; lethal concentration required to kill 50% of a cell monolayer; read-out: concentration required to kill eukaryotic cells (LC50)
experimental_endpoint: CC50 at 72 h

So what does the record say about CC50 at 72 h for CC(C)C[C@@H](NC(=O)[C@H](N)CCCCN)C(=O)N[C@H](C)C(=O)N[C@H](CCCCN)C(=O)N[C@H](CC(C)C)C(=O)N[C@H](C)C(=O)N[C@H](CCCCN)C(=O)N[C@H](CCCCN)C(=O)N[C@H](CC(C)C)C(=O)N[C@H](C)C(=O)N[C@H](CCCCN)C(=O)N[C@H](CC(C)C)C(=O)N[C@H](C)C(=O)N[C@H](CCCCN)C(=O)O [D(KLAKLAK)2] ?
~300 µM
